- Tested on: EBC-1
- assay_remarks: relative viability (nuclei count vs DMSO), 5 days (fraction); higher = more cells survive
- test_parameters: first compound 0.2 µM
In this section we review reported relative viability values for a set of compounds.

These recorded examples may help you get a feel for the data.
Cc1csc(=NC2CCCCC2)n1/N=C/c1ccc(O)c(O)c1O [MIM1] + CS(=O)(=O)CCNCc1ccc(-c2ccc3ncnc(Nc4ccc(OCc5cccc(F)c5)c(Cl)c4)c3c2)o1 [Lapatinib] (partner 2 µM) = 0.199
Cc1csc(=NC2CCCCC2)n1/N=C/c1ccc(O)c(O)c1O [MIM1] + CS(=O)(=O)N1CCN(Cc2cc3nc(-c4cccc5[nH]ncc45)nc(N4CCOCC4)c3s2)CC1 [Pictilisib] (partner 1 µM) = 0.352
Cc1csc(=NC2CCCCC2)n1/N=C/c1ccc(O)c(O)c1O [MIM1] + O=C(c1cc(Cc2n[nH]c(=O)c3ccccc23)ccc1F)N1CCN(C(=O)C2CC2)CC1 [Olaparib] (partner 8 µM) = 0.559

Please find the next compound below.
Answer with the recorded relative viability for the compound listed here: CCNC(=O)c1noc(-c2cc(C(C)C)c(O)cc2O)c1-c1ccc(CN2CCOCC2)cc1 [Luminespib] + CS(=O)(=O)CCNCc1ccc(-c2ccc3ncnc(Nc4ccc(OCc5cccc(F)c5)c(Cl)c4)c3c2)o1 [Lapatinib] (partner 2 µM)
0.194

* * *

- Tested on: LC-2-ad
- assay_remarks: relative viability (nuclei count vs DMSO), 5 days (fraction); higher = more cells survive
- test_parameters: first compound 2 µM
measure: relative viability
// no unit string in output, number only

These recorded examples may help you get a feel for the data.
Cc1csc(=NC2CCCCC2)n1/N=C/c1ccc(O)c(O)c1O [MIM1] + Nc1nc2[nH]cc(CCc3ccc(C(=O)N[C@@H](CCC(=O)O)C(=O)O)cc3)c2c(=O)[nH]1 [Pemetrexed] (partner 0.2 µM) = 0.287
CN1CCN(CCOc2cc(OC3CCOCC3)c3c(Nc4c(Cl)ccc5c4OCO5)ncnc3c2)CC1 [Saracatinib] + CC(=O)Nc1cccc(-n2c(=O)n(C3CC3)c(=O)c3c(Nc4ccc(I)cc4F)n(C)c(=O)c(C)c32)c1 [Trametinib] (partner 0.02 µM) = 0.866
Cc1csc(=NC2CCCCC2)n1/N=C/c1ccc(O)c(O)c1O [MIM1] + CC1(C)CCC(c2ccc(Cl)cc2)=C(CN2CCN(c3ccc(C(=O)NS(=O)(=O)c4ccc(N[C@H](CCN5CCOCC5)CSc5ccccc5)c(S(=O)(=O)C(F)(F)F)c4)cc3)CC2)C1 [Navitoclax] (partner 0.5 µM) = 0.498
Cc1csc(=NC2CCCCC2)n1/N=C/c1ccc(O)c(O)c1O [MIM1] + O=C(CCCCCCC(=O)Nc1ccccc1)NO [Vorinostat] (partner 1 µM) = 0.777
CN1CCN(CCOc2cc(OC3CCOCC3)c3c(Nc4c(Cl)ccc5c4OCO5)ncnc3c2)CC1 [Saracatinib] + COc1cccc2cc(-c3nc([C@H]4CC[C@H](C(=O)O)CC4)n4ncnc(N)c34)[nH]c12 [OSI-027] (partner 0.5 µM) = 0.728

Answer with the recorded relative viability for the molecule listed here: CN1CCN(CCOc2cc(OC3CCOCC3)c3c(Nc4c(Cl)ccc5c4OCO5)ncnc3c2)CC1 [Saracatinib] + C[C@]1(O)C[C@@H](c2nc(-c3ccc4ccc(-c5ccccc5)nc4c3)c3c(N)nccn32)C1 [Linsitinib] (partner 1 µM)
0.541

Answer with the recorded relative viability for the molecule listed here: Cc1csc(=NC2CCCCC2)n1/N=C/c1ccc(O)c(O)c1O [MIM1] + CCNC(=O)c1noc(-c2cc(C(C)C)c(O)cc2O)c1-c1ccc(CN2CCOCC2)cc1 [Luminespib] (partner 0.01 µM)
0.727

Answer with the recorded relative viability for the molecule listed here: CN1CCN(CCOc2cc(OC3CCOCC3)c3c(Nc4c(Cl)ccc5c4OCO5)ncnc3c2)CC1 [Saracatinib] + Nc1ncn([C@H]2C[C@H](O)[C@@H](CO)O2)c(=O)n1 [Decitabine] (partner 2 µM)
0.789

* * *

- System: LOU-NH91
- assay_remarks: relative viability (nuclei count vs DMSO), 5 days (fraction); higher = more cells survive
- test_parameters: first compound 0.002 µM
measure: relative viability

These recorded examples may help you get a feel for the data.
CCNC(=O)c1noc(-c2cc(C(C)C)c(O)cc2O)c1-c1ccc(CN2CCOCC2)cc1 [Luminespib] + CS(=O)(=O)CCNCc1ccc(-c2ccc3ncnc(Nc4ccc(OCc5cccc(F)c5)c(Cl)c4)c3c2)o1 [Lapatinib] (partner 2 µM) = 0.791
CCNC(=O)c1noc(-c2cc(C(C)C)c(O)cc2O)c1-c1ccc(CN2CCOCC2)cc1 [Luminespib] + C[C@]1(O)C[C@@H](c2nc(-c3ccc4ccc(-c5ccccc5)nc4c3)c3c(N)nccn32)C1 [Linsitinib] (partner 1 µM) = 0.913
CCNC(=O)c1noc(-c2cc(C(C)C)c(O)cc2O)c1-c1ccc(CN2CCOCC2)cc1 [Luminespib] + Cc1cc(Nc2cc(N3CCN(C)CC3)nc(Sc3ccc(NC(=O)C4CC4)cc3)n2)n[nH]1 [Tozasertib] (partner 0.1 µM) = 0.685
CCNC(=O)c1noc(-c2cc(C(C)C)c(O)cc2O)c1-c1ccc(CN2CCOCC2)cc1 [Luminespib] + O=C(CCCCCCC(=O)Nc1ccccc1)NO [Vorinostat] (partner 1 µM) = 0.935
CCNC(=O)c1noc(-c2cc(C(C)C)c(O)cc2O)c1-c1ccc(CN2CCOCC2)cc1 [Luminespib] + CC(=O)Nc1cccc(-n2c(=O)n(C3CC3)c(=O)c3c(Nc4ccc(I)cc4F)n(C)c(=O)c(C)c32)c1 [Trametinib] (partner 0.02 µM) = 0.807
CCNC(=O)c1noc(-c2cc(C(C)C)c(O)cc2O)c1-c1ccc(CN2CCOCC2)cc1 [Luminespib] + CC1(C)CCC(c2ccc(Cl)cc2)=C(CN2CCN(c3ccc(C(=O)NS(=O)(=O)c4ccc(N[C@H](CCN5CCOCC5)CSc5ccccc5)c(S(=O)(=O)C(F)(F)F)c4)cc3)CC2)C1 [Navitoclax] (partner 0.5 µM) = 0.692

Answer with the recorded relative viability for the compound listed here: CCNC(=O)c1noc(-c2cc(C(C)C)c(O)cc2O)c1-c1ccc(CN2CCOCC2)cc1 [Luminespib] + O=C(c1cc(Cc2n[nH]c(=O)c3ccccc23)ccc1F)N1CCN(C(=O)C2CC2)CC1 [Olaparib] (partner 8 µM)
0.967

Answer with the recorded relative viability for the compound listed here: CCNC(=O)c1noc(-c2cc(C(C)C)c(O)cc2O)c1-c1ccc(CN2CCOCC2)cc1 [Luminespib] + CC(C)C[C@H](NC(=O)[C@H](Cc1ccccc1)NC(=O)c1cnccn1)B(O)O [Bortezomib] (partner 0.002 µM)
0.513

* * *

- System: NCI-H1650
- assay_remarks: relative viability (nuclei count vs DMSO), 5 days (fraction); higher = more cells survive
- test_parameters: first compound 0.003162 µM
In this section we review reported relative viability values for a set of molecules.
// no unit string in output, number only

These recorded examples may help you get a feel for the data.
Cc1cn(-c2cc(NC(=O)c3ccc(C)c(Nc4nccc(-c5cccnc5)n4)c3)cc(C(F)(F)F)c2)cn1 [Nilotinib] + N=C(N)NC(=N)NCCc1ccccc1 [Phenformin] (partner 250 µM) = 0.437
Cc1cn(-c2cc(NC(=O)c3ccc(C)c(Nc4nccc(-c5cccnc5)n4)c3)cc(C(F)(F)F)c2)cn1 [Nilotinib] + COc1cc2c(Oc3ccc(NC(=O)C4(C(=O)Nc5ccc(F)cc5)CC4)cc3F)ccnc2cc1OCCCN1CCOCC1 [Foretinib] (partner 0.25 µM) = 1.2
Cc1cn(-c2cc(NC(=O)c3ccc(C)c(Nc4nccc(-c5cccnc5)n4)c3)cc(C(F)(F)F)c2)cn1 [Nilotinib] + CCNC(=O)c1noc(-c2cc(C(C)C)c(O)cc2O)c1-c1ccc(CN2CCOCC2)cc1 [Luminespib] (partner 0.01 µM) = 0.203

Answer with the recorded relative viability for the molecule listed here: Cc1cn(-c2cc(NC(=O)c3ccc(C)c(Nc4nccc(-c5cccnc5)n4)c3)cc(C(F)(F)F)c2)cn1 [Nilotinib] + Nc1ncn([C@H]2C[C@H](O)[C@@H](CO)O2)c(=O)n1 [Decitabine] (partner 2 µM)
0.621

* * *

In this section we review reported relative viability values for a set of compounds.
- Test system: LXF-289
- assay_remarks: relative viability (nuclei count vs DMSO), 5 days (fraction); higher = more cells survive
- test_parameters: first compound 0.1 µM

These recorded examples may help you get a feel for the data.
Cc1cn(-c2cc(NC(=O)c3ccc(C)c(Nc4nccc(-c5cccnc5)n4)c3)cc(C(F)(F)F)c2)cn1 [Nilotinib] + CS(=O)(=O)N1CCN(Cc2cc3nc(-c4cccc5[nH]ncc45)nc(N4CCOCC4)c3s2)CC1 [Pictilisib] (partner 1 µM) = 0.335
Cc1cn(-c2cc(NC(=O)c3ccc(C)c(Nc4nccc(-c5cccnc5)n4)c3)cc(C(F)(F)F)c2)cn1 [Nilotinib] + COc1cccc2cc(-c3nc([C@H]4CC[C@H](C(=O)O)CC4)n4ncnc(N)c34)[nH]c12 [OSI-027] (partner 0.5 µM) = 0.532

Answer with the recorded relative viability for the compound listed here: Cc1cn(-c2cc(NC(=O)c3ccc(C)c(Nc4nccc(-c5cccnc5)n4)c3)cc(C(F)(F)F)c2)cn1 [Nilotinib] + Nc1ncn([C@H]2C[C@H](O)[C@@H](CO)O2)c(=O)n1 [Decitabine] (partner 2 µM)
0.61

Answer with the recorded relative viability for the compound listed here: Cc1cn(-c2cc(NC(=O)c3ccc(C)c(Nc4nccc(-c5cccnc5)n4)c3)cc(C(F)(F)F)c2)cn1 [Nilotinib] + CC(=O)c1c(C)c2cnc(Nc3ccc(N4CCNCC4)cn3)nc2n(C2CCCC2)c1=O [Palbociclib] (partner 0.5 µM)
0.577

Answer with the recorded relative viability for the compound listed here: Cc1cn(-c2cc(NC(=O)c3ccc(C)c(Nc4nccc(-c5cccnc5)n4)c3)cc(C(F)(F)F)c2)cn1 [Nilotinib] + N=C(N)NC(=N)NCCc1ccccc1 [Phenformin] (partner 250 µM)
0.454

Answer with the recorded relative viability for the compound listed here: Cc1cn(-c2cc(NC(=O)c3ccc(C)c(Nc4nccc(-c5cccnc5)n4)c3)cc(C(F)(F)F)c2)cn1 [Nilotinib] + C[C@@H](Oc1cc(-c2cnn(C3CCNCC3)c2)cnc1N)c1c(Cl)ccc(F)c1Cl [Crizotinib] (partner 1 µM)
0.765

Answer with the recorded relative viability for the compound listed here: Cc1cn(-c2cc(NC(=O)c3ccc(C)c(Nc4nccc(-c5cccnc5)n4)c3)cc(C(F)(F)F)c2)cn1 [Nilotinib] + COc1cc2c(Oc3ccc(NC(=O)C4(C(=O)Nc5ccc(F)cc5)CC4)cc3F)ccnc2cc1OCCCN1CCOCC1 [Foretinib] (partner 0.25 µM)
0.761
